Taken from the supplement of paper PMC9170038.

- Test system: MS2 coat protein
- procedure.details: apparent KD of MS2 coat protein; designed switch direction (-1 OFF switch, 1 ON switch): -1; higher = weaker reporter binding
- conditions.used: input ligand: none
Answer each item with its documented apparent KD of MS2 coat protein.
Reply numerically in nM, unit not repeated.

Which apparent KD of MS2 coat protein value belongs to CUUUUCAGAGGAUAUAGAUAUUAUCACAUGAGGAUCACCCAUGUAACCCUACAUUCACCACUAGAAGGCUGUUAAG [lam1] (Eterna round: R97, puzzle: Exclusion 5) ?
48.5

Which apparent KD of MS2 coat protein value belongs to ACGUUAGGAGGAUAUAGAAUUUUAGACAUGAGGAUCACCCAUGUCCUAUGUCAUGAGAGGCUAGAAGGCCUAGUUU [Eternabot (L2) Solution 51] (Eterna round: R97, puzzle: Exclusion 5) ?
29.4

Which apparent KD of MS2 coat protein value belongs to ACGCGACAUGAGGAUCACCCAUGUGAGGAUAUGGCCUGUUUGUCGUGUGCUGGCUCUGUCAGAAGGCGCGUGGG [salish99_ex1_r4_041] (Eterna round: R97, puzzle: Exclusion 1) ?
683

Which apparent KD of MS2 coat protein value belongs to UACACCGCAUGAGGAUCAAACAUGAGGAUCACCCAUGUGUAGCAAGCUUUUUGCUCGUCUUAUAAAUAUGUGGUGUA [Electric Eye 9 - Jieux - Sensor, turn-off variant 1] (Eterna round: R97, puzzle: Sensor, turn-off variant 1) ?
13

Which apparent KD of MS2 coat protein value belongs to AAUAACAAGCCGAUCCUCAACAUGAGGAUCACCCAUGUGCUCGUCUUGUAAAGUACUAUCACGAAAGUGAUAGUACA (Eterna round: R97, puzzle: Sensor, turn-off variant 1) ?
419

Which apparent KD of MS2 coat protein value belongs to AUAAUGUCAGGAUAUACUAAUGAUGAAUGAUCAGACAUUAUGUAGAAGGGACAUGAGGAUCACCCAUGUAAUAU [EX4 #3] (Eterna round: R97, puzzle: Exclusion 4) ?
29.1

Which apparent KD of MS2 coat protein value belongs to CCUCAUAUUUAGGAUAUGAUUGGUAAUUAUUAGUUAGAAGGAGAUACAUGAGGAUCACCCAUGUAAUAUUUAAA [-11.7, -11.3 kcal, 36% A] (Eterna round: R97, puzzle: Exclusion 6) ?
19.5

Which apparent KD of MS2 coat protein value belongs to CGCCCUGACGAAGGAUAUUAAGCUCAUACAUGAGGAUCACCCAUGUCCAUAGUAGUGUAUGCACCUGAGAAGGUCGUCAGCGCU [Eternabot solution 50] (Eterna round: R96, puzzle: Exclusion NG 2) ?
257

Which apparent KD of MS2 coat protein value belongs to UUAGAAUUGUUAGGAUAUUAAUUAUUGUUUAGUAUGAUCUACAUGAGGAUCACCCAUGUUAAAUAUAAGAAGGAACGUUAGAUU [JR_ExcNG2_Sub095] (Eterna round: R96, puzzle: Exclusion NG 2) ?
51.3

Which apparent KD of MS2 coat protein value belongs to GCACUGCGAGGAUAUACAUGAGGAUCACCCAUGUGUCGGCAGACAUGUUAUUUCUAAUGUAGAAGGCGCGUAAA [JR_Ex3_Sub002] (Eterna round: R97, puzzle: Exclusion 3) ?
68.8

Which apparent KD of MS2 coat protein value belongs to AUGUUGCGAGGAUAUAUAAGGGUAUAAUAAUAAGAUAUGGAACAUGAGGAUCACCCAUGUAGAAGGUGCAUAAC [JR_Ex2_Sub040] (Eterna round: R97, puzzle: Exclusion 2) ?
21.1

Which apparent KD of MS2 coat protein value belongs to UGAAAGUGAGGAUAUCCAAUAUAUGACAUGAGGAUCACCCAUGUUUCCACUCGUACCUCCGGAGAAGGCACAAGGU [Ex5 #57] (Eterna round: R97, puzzle: Exclusion 5) ?
29.4
